- EXPERIMENTAL SYSTEM: Potassium channel subfamily K member 3 (Homo sapiens)
- PROCEDURE SUMMARY: human KCNK3 channel inhibitors, primary screen, CHO cells, FluxOR thallium flux, B-score (AID 602410);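 on B-score: more negative B-score means stronger inhibition of thallium flux through KCNK3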
- PROTOCOL CONDITIONS: FluxOR fluorescence, at 10 µM
In all, about 340,000 compounds went through this assay and about 2,800 (0.82%) were called active.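 How the source made its calls: active means B-score under library mean minus 4 SD, starting fluorescence ratio at most library mean plus 5 SD; inactive means the rest.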 Shown is part of a subset that was picked to be rich in actives.
Answer with one of the outcomes Y (active), N (inactive)

Answer briefly: the call reported for O=C(NNC1=C(C(=O)C(F)(F)F)CCC1)c1ccncc1 in this assay.
N

Test call, this molecule: COc1ccc(NC(=O)c2sc3nc(C)nc(N4CCN(c5ccccn5)CC4)c3c2C)c(OC)c1
N

Could you check what this test reported for Cc1ccc(S(=O)(=O)N(CC(O)CN2C(=O)NC(C)(C)C2=O)c2cccc([N+](=O)[O-])c2)cc1 (stereo not given) ?
N

# fetch the recorded call for O=S(=O)(Cc1noc(-c2ccc(OC(F)(F)F)cc2)n1)c1ccc(F)cc1 here
N

Per the assay record, what outcome was assigned to Cc1ccc(NC(=O)c2cc([N+](=O)[O-])ccc2Cl)c(O)c1 ?
Y

Query: recorded result category for O=C(Nc1cccnc1)c1cc([N+](=O)[O-])ccc1Cl in this test
N

Can you look up the reported call for Cc1nc(N2CCC(C)CC2)c2c(C)c(C(=O)Nc3cc(F)ccc3C)sc2n1 for me?
N

GET /call?item= CCOC(=O)C1CCCN(C(=O)c2sc3nc(C)nc(N4CCOCC4)c3c2C)C1 (stereo not given) returns the recorded outcome of this test.
N

How was O=C(c1c(F)cccc1Cl)N1CCN(c2ccccn2)CC1 classified in this test?
N

Recorded test outcome, item Cc1cc(Br)ccc1NC(=O)c1sc2ncn(CC(=O)N3CCN(c4ccccn4)CC3)c(=O)c2c1C
N

###

- EXPERIMENTAL SYSTEM: Potassium channel subfamily K member 3 (Homo sapiens)
- PROCEDURE SUMMARY: human KCNK3 channel inhibitors, primary screen, CHO cells, FluxOR thallium flux, B-score (AID 602410);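 on B-score: more negative B-score means stronger inhibition of thallium flux through KCNK3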
- PROTOCOL CONDITIONS: FluxOR fluorescence, at 10 µM; hits give low values
Out of some 340,000 compounds screened, about 2,800 (0.82%) were called active. What follows is part of a selection rich in actives, with near analogues and random picks from the rest.
QUANTITY MEASURED: B-score

Before answering, review these 6 worked examples.
{"MOLECULE": "CC(Oc1ccccc1[N+](=O)[O-])C(=O)N/N=C/c1ccoc1 (stereo not given)", "B-score": "inactive"}
{"MOLECULE": "CC1CN(CCOc2ccccc2[N+](=O)[O-])CC(C)O1 (stereo not given)", "B-score": "inactive"}
{"MOLECULE": "COC(=O)c1c(NC(=O)c2ccccc2F)sc2c1C(C(=O)OC)CC2 (stereo not given)", "B-score": "inactive"}
{"MOLECULE": "OC(CN=c1sc2ccccc2n1CC(O)COc1ccccc1)COc1ccccc1 (stereo not given)", "B-score": "-12.6 (active)"}
{"MOLECULE": "CN(c1ccccc1)S(=O)(=O)c1cccc(NC(=O)Cc2ccc(Cl)cc2)c1", "B-score": "-10.7 (active)"}
{"MOLECULE": "O=C(C(c1ccccc1)c1ccccc1)N1CCN(CC(O)COc2ccccc2)CC1 (stereo not given)", "B-score": "inactive"}

Which B-score value is on record for CN(c1ccccc1)S(=O)(=O)c1cccc(NC(=O)Cc2c(F)cccc2Cl)c1 ?
inactive

If you can, please state the reported B-score value of CC(C)c1cc(C(=O)N/N=C/c2ccoc2)c(O)c(C(C)C)c1 .
-10.5 (active)

GET /values?readout=B-score&item= C=CCN1CN(S(=O)(=O)c2ccc(OC)cc2)c2nc3ccccc3nc21
inactive

Return reported B-score; argument: COC(c1ccccc1)c1nnc(CCC(=O)N2CCN(CCOc3ccccc3)CC2)o1 (stereo not given)
inactive
